Target protein (sequence): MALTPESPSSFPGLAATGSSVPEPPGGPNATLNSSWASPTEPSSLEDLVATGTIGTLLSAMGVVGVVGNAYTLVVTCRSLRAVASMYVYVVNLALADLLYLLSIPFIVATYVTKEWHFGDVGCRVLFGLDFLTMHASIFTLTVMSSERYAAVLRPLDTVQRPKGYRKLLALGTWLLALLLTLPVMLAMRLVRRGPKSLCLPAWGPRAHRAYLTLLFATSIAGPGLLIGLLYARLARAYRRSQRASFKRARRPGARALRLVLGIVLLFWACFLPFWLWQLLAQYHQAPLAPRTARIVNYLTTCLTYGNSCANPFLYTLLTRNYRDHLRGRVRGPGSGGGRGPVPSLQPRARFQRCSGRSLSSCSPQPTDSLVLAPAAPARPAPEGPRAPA
pKi: −log10 of the molar value.
propertyLabel: pKi

[[record]]
mol = "CCCSc1ncc(S(=O)(=O)Nc2ccc(Cl)c(OCCN(C)C)c2)c(OC)n1"
assayresult = 6.66


The values you see were collected from patent US20040152895A1.
